- Tested on: human rotavirus HRV 248
- run-description: Infectivity assay for rotavirus, MA104 cells, strain HRV 248
metric-name: EC50 (nM)
The answer is to be given in nM; state only the numeric part.

C[C@@H](CO)CCC[C@@H](C)[C@H]1CC[C@H]2[C@@H]3CC=C4C[C@@H](O)CC[C@]4(C)[C@H]3CC[C@]12C [27OHC, 27-hydroxycholesterol]
230

Kindly review the next molecule as well.
Return EC50 measured with human rotavirus HRV 248 given this molecule: C[C@H](CCCC(C)(C)O)[C@H]1CC[C@H]2[C@@H]3CC=C4C[C@@H](O)CC[C@]4(C)[C@H]3CC[C@]12C [25OHC, 25-hydroxycholesterol]
110

* * *

- Tested on: human rotavirus Wa
- run-description: Infectivity assay for rotavirus repeated on Caco2 cells, strain Wa
- Type: cell-based
- assay-context: Caco-2
# EC50 listing for each entry below
Hi! Could you send only the number? It should be in µM, unit omitted.

C[C@@H](CO)CCC[C@@H](C)[C@H]1CC[C@H]2[C@@H]3CC=C4C[C@@H](O)CC[C@]4(C)[C@H]3CC[C@]12C [27OHC, 27-hydroxycholesterol]
0.44

For the next question, use this molecule.
Consider the molecule C[C@H](CCCC(C)(C)O)[C@H]1CC[C@H]2[C@@H]3CC=C4C[C@@H](O)CC[C@]4(C)[C@H]3CC[C@]12C [25OHC, 25-hydroxycholesterol] and give its measured EC50.
0.19

* * *

Form field: EC50 (one value per entry).
- System: human rotavirus HRV 408
- run-description: Infectivity assay for rotavirus, MA104 cells, strain HRV 408
Lab book: enter the figure in nM, no units written.

C[C@H](CCCC(C)(C)O)[C@H]1CC[C@H]2[C@@H]3CC=C4C[C@@H](O)CC[C@]4(C)[C@H]3CC[C@]12C [25OHC, 25-hydroxycholesterol]
120

For the molecule C[C@@H](CO)CCC[C@@H](C)[C@H]1CC[C@H]2[C@@H]3CC=C4C[C@@H](O)CC[C@]4(C)[C@H]3CC[C@]12C [27OHC, 27-hydroxycholesterol] , what EC50 is on record?
400
